Sourced from patent US11787785B2

# Study system: WIZ protein (HiBit-WIZ fusion protein) (Homo sapiens, UniProt O95785+Q96SW2)
# Construct: expressed in transfected cells
# Sequence (O95785 whole entry, the tested form may be a part): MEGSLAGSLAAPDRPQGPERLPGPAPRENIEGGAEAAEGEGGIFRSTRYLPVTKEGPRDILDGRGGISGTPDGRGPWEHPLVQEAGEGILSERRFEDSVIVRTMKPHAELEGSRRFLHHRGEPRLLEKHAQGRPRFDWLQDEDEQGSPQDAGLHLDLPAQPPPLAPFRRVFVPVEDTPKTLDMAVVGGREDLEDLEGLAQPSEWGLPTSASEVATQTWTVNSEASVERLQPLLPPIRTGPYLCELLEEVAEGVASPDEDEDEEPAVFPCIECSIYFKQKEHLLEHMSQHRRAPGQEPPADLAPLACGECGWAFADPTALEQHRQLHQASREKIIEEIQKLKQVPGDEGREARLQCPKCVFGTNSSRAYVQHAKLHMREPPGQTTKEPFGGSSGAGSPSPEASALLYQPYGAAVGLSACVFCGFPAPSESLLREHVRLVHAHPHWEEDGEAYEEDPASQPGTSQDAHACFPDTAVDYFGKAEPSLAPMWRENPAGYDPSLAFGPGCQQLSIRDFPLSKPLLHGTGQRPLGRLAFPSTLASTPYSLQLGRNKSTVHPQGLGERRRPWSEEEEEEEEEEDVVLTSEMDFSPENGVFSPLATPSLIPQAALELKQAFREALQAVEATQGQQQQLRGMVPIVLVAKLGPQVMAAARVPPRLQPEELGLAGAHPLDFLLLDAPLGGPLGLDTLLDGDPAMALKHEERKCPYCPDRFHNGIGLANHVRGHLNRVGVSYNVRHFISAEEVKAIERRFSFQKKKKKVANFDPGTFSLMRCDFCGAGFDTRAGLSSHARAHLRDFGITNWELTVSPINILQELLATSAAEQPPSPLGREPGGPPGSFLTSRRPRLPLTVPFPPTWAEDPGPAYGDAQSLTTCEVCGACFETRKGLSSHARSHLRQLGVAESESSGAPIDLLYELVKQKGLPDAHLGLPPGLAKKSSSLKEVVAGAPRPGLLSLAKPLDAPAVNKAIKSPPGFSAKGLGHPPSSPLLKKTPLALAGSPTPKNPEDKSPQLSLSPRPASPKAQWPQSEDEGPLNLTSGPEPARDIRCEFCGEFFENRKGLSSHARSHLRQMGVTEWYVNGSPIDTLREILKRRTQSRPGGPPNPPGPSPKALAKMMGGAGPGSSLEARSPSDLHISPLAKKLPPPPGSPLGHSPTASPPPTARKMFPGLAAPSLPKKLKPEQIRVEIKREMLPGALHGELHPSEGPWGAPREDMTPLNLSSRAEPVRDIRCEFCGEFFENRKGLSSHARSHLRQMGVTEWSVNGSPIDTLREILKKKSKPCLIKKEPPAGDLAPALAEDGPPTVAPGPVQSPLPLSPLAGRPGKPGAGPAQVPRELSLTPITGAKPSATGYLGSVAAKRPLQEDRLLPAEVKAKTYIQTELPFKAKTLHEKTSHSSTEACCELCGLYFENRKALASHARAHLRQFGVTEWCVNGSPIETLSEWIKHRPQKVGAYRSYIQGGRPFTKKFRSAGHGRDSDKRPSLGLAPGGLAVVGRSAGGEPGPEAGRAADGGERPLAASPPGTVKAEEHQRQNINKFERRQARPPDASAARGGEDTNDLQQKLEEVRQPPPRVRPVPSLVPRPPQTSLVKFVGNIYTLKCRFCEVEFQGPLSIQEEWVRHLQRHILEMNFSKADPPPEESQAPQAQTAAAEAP
# Sequence (Q96SW2 whole entry, the tested form may be a part): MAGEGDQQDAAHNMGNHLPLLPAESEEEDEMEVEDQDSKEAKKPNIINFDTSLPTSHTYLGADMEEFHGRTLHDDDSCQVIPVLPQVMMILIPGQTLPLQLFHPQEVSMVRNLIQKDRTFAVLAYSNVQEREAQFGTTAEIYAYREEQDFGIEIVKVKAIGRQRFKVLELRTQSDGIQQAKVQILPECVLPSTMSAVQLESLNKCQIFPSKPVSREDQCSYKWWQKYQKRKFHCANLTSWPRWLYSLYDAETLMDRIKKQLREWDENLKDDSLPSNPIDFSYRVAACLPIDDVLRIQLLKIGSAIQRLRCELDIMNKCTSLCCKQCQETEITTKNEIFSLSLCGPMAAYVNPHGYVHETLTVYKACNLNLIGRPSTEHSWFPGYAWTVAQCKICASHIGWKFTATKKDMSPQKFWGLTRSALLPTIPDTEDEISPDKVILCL
# Sequence (Q16531 whole entry partner, the tested form may be a part): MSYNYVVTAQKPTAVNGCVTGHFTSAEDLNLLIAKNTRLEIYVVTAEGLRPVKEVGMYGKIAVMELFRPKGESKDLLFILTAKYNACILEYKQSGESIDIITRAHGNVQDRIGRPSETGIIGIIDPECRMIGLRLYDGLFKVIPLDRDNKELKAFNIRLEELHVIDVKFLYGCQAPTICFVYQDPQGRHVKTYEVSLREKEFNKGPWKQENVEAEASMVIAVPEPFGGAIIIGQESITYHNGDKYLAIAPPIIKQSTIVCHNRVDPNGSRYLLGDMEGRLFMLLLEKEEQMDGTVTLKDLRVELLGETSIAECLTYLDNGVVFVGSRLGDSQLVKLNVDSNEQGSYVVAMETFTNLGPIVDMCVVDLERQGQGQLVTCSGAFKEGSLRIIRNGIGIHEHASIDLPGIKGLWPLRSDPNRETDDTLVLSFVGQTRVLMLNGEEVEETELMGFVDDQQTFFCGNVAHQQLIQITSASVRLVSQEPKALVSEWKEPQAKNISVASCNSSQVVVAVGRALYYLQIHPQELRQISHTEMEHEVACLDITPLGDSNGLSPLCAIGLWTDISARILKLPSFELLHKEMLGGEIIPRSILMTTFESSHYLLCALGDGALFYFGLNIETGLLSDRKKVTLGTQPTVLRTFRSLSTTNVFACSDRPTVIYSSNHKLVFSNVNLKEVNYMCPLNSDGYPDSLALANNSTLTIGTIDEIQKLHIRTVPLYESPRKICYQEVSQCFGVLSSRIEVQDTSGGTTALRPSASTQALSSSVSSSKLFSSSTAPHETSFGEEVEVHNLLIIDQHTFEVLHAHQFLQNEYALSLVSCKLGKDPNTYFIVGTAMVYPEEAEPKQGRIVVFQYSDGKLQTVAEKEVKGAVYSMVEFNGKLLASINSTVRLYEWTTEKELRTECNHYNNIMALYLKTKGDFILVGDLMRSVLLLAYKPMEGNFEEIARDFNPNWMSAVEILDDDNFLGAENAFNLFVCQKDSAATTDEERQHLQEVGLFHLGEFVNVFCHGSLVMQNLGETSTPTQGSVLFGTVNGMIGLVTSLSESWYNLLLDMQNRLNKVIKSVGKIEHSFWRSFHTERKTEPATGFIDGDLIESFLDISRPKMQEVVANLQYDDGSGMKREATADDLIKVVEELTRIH
# Assay method text: Quantification of WIZ protein levels in HiBit tag fusion protein assay (WIZ HiBit assay in 293T cells)
# Type: cell-based
# Protocol conditions: WIZ HiBit assay in 293T cells; 10-point, 5-fold dose response, highest concentration 25 μM, about 18 hours; read-out: WIZ AC50
Measured attribute: DC50 (nM)

# Compound, Output unit, DC50
data = [
    ("CO[C@H]1C[C@@H](CN2CC[C@@H](Cc3ccn4ncc(N5CCC(=O)NC5=O)c4c3)C[C@@H]2C)C1 [Example 303]", "nM", 46),
    ("C[C@H]1C[C@H](Cc2ccn3ncc(N4CCC(=O)NC4=O)c3c2)CCN1S(=O)(=O)N(C)C [Example 292]", "nM", 11),
    ("O=C1CCN(c2cnn3ccc(CC4CCN(Cc5ccc(C(F)(F)F)cc5)CC4)cc23)C(=O)N1 [Example 57]", "nM", 107),
    ("O=C1CCN(c2cnn3ccc(CN4CCN(CCC5CCOCC5)CC4)cc23)C(=O)N1 [Example 161]", "nM", 115),
    ("O=C1CCN(c2cnn3ccc(CC4CCN(Cc5cc(F)cc(C(F)(F)F)c5)CC4)cc23)C(=O)N1 [Example 51]", "nM", 39),
]

[1] C[C@H]1CN(Cc2ccn3ncc(N4CCC(=O)NC4=O)c3c2)CCN1C1CCCCC1 [Example 333]
[2] C[C@H]1CN(Cc2ccn3ncc(N4CCC(=O)NC4=O)c3c2)CCN1Cc1cccnc1 [Example 208]
Could you tell me which of 1 and 2 has the lower DC50 reading? Your choice should be expressed through its label. 1
(1: 68 nM, 2: 580 nM)

###

# Study system: WIZ protein (HiBit-WIZ fusion protein) (Homo sapiens, UniProt O95785+Q96SW2)
# Construct: expressed in transfected cells
# Assay method text: Quantification of WIZ protein levels in HiBit tag fusion protein assay (WIZ HiBit assay in 293T cells)
# Assay type: cell-based
# Protocol conditions: WIZ HiBit assay in 293T cells; 10-point, 5-fold dose response, highest concentration 25 μM, about 18 hours; read-out: WIZ AC50
Measured attribute: DC50 (nM)

# Compound, DC50 / nM
measured = [
    ("CC(=O)N1CCC(Cc2ccn3ncc(N4CCC(=O)NC4=O)c3c2)CC1", 7360),
]

[P] O=C1CCN(c2cnn3ccc(CC4CCN(S(=O)(=O)NC5CCCC5)CC4)cc23)C(=O)N1
[Q] O=C1CCN(c2cnn3ccc(CN4CCN(CC5CCCOC5)CC4)cc23)C(=O)N1 (stereo not shown)
[R] O=C1CCN(c2cnn3ccc(CN4CCN(CC(F)(F)F)CC4)cc23)C(=O)N1
Which order do these items take when sorted by rising DC50? List them. Write the labels out in the order the request specifies. Q, P, R
(Q: 79 nM, P: 242 nM, R: 981 nM)

###

# Study system: WIZ protein (HiBit-WIZ fusion protein) (Homo sapiens, UniProt O95785+Q96SW2)
# Construct: expressed in transfected cells
# Assay method text: Quantification of WIZ protein levels in HiBit tag fusion protein assay (WIZ HiBit assay in 293T cells)
# Type: cell-based
# Protocol conditions: HEK-293T, 100 − Amax, at 25 uM; 293T cells; read-out: % degradation of WIZ (100 − Amax)
Measured attribute: Dmax at 25 µM (%)

# Molecule, Measured attribute, Output unit, Reported measurement
rows = [
    ("C[C@H]1C[C@H](Cc2ccn3ncc(N4CCC(=O)NC4=O)c3c2)CCN1C[C@H]1CCC(F)(F)C1 [Example 307]", "Dmax at 25 µM", "%", 84),
    ("O=C1CCN(c2cnn3ccc(CN4CCN(Cc5cccc(F)c5)CC4)cc23)C(=O)N1 [Example 170]", "Dmax at 25 µM", "%", 53),
    ("CC(C)C(C)N1CCN(Cc2ccn3ncc(N4CCC(=O)NC4=O)c3c2)CC1 (centres unmarked) [Example 240]", "Dmax at 25 µM", "%", 80),
    ("C[C@@H]1CN(Cc2ccn3ncc(N4CCC(=O)NC4=O)c3c2)CCN1CC1CCCCC1 [Example 214]", "Dmax at 25 µM", "%", 65),
    ("CC[C@H]1CN(Cc2ccn3ncc(N4CCC(=O)NC4=O)c3c2)CCN1CC1CCOCC1 [Example 227]", "Dmax at 25 µM", "%", 60),
    ("C[C@H]1C[C@@H](Cc2ccn3ncc(N4CCC(=O)NC4=O)c3c2)CCN1CC1CCOCC1 [Example 73]", "Dmax at 25 µM", "%", 89),
    ("C[C@H]1CN(Cc2ccn3ncc(N4CCC(=O)NC4=O)c3c2)CCN1CC1CCCCC1 [Example 192]", "Dmax at 25 µM", "%", 86),
    ("CC(C)CN1CC[C@@H](Cc2ccn3ncc(N4CCC(=O)NC4=O)c3c2)C[C@H]1C [Example 77]", "Dmax at 25 µM", "%", 68),
]

###

# Study system: WIZ protein (HiBit-WIZ fusion protein) (Homo sapiens, UniProt O95785+Q96SW2)
# Construct: expressed in transfected cells
# Assay method text: Quantification of WIZ protein levels in HiBit tag fusion protein assay (WIZ HiBit assay in 293T cells)
# Type: cell-based
# Protocol conditions: HEK-293T, DMSO-normalized, curve-fitted percentage of WIZ-HiBit remaining at 25 uM; 293T cells; read-out: WIZ Amax
Measured attribute: remaining activity at 25 µM (%)

# Compound, Study system, Output unit, remaining activity at 25 µM
rows = [
    ("C[C@H]1CN(Cc2ccn3ncc(N4CCC(=O)NC4=O)c3c2)CCN1C[C@H]1CC[C@H](C(F)(F)F)CC1", "WIZ protein (HiBit-WIZ fusion protein) (Homo sapiens, UniProt O95785+Q96SW2)", "%", 17),
    ("O=C1CCN(c2cnn3ccc(CN4CCN(CC(F)(F)F)CC4)cc23)C(=O)N1", "WIZ protein (HiBit-WIZ fusion protein) (Homo sapiens, UniProt O95785+Q96SW2)", "%", 48),
    ("O=C1CCN(c2cnn3ccc(CC4CCN(CC5CCCCC5)CC4)cc23)C(=O)N1", "WIZ protein (HiBit-WIZ fusion protein) (Homo sapiens, UniProt O95785+Q96SW2)", "%", 9),
    ("O=C1CCN(c2cnn3ccc(CC4CCN(Cc5cccnc5)CC4)cc23)C(=O)N1", "WIZ protein (HiBit-WIZ fusion protein) (Homo sapiens, UniProt O95785+Q96SW2)", "%", 18),
    ("CO[C@H]1C[C@@H](CN2CCC(Cc3ccn4ncc(N5CCC(=O)NC5=O)c4c3)CC2)C1", "WIZ protein (HiBit-WIZ fusion protein) (Homo sapiens, UniProt O95785+Q96SW2)", "%", 18),
    ("CC(C)CN1[C@@H]2CC[C@H]1CC(Cc1ccn3ncc(N4CCC(=O)NC4=O)c3c1)C2 (some centres unmarked)", "WIZ protein (HiBit-WIZ fusion protein) (Homo sapiens, UniProt O95785+Q96SW2)", "%", 39),
]

[A] C[C@H]1CN(Cc2ccn3ncc(N4CCC(=O)NC4=O)c3c2)CCN1CC1CC1
[B] O=C1CCN(c2cnn3ccc(CC4CCN(Cc5cccc(F)c5)C4)cc23)C(=O)N1 (centres unmarked)
Thinking about recorded remaining activity at 25 µM values, which is higher, A or B ? Your choice should be expressed through its label. B
(B: 62%, A: 22%)

###

# Study system: WIZ protein (HiBit-WIZ fusion protein) (Homo sapiens, UniProt O95785+Q96SW2)
# Construct: expressed in transfected cells
# Assay method text: Quantification of WIZ protein levels in HiBit tag fusion protein assay (WIZ HiBit assay in 293T cells)
# Format: cell-based
# Protocol conditions: WIZ HiBit assay in 293T cells; 10-point, 5-fold dose response, highest concentration 25 μM, about 18 hours; read-out: WIZ AC50
Measured attribute: DC50 (µM)

Answered examples (3):
# Compound, Reported measurement
measured = [
    ("COc1cccc(CN2CCC(Cc3ccn4ncc(N5CCC(=O)NC5=O)c4c3)CC2)c1", 0.052),
    ("C[C@H]1C[C@@H](Cc2ccn3ncc(N4CCC(=O)NC4=O)c3c2)CCN1CC1CCCCC1 (single isomer, unassigned)", 0.007),
    ("O=C1CCN(c2cnn3ccc(CC4C[C@H]5CC[C@@H](C4)N5CC4CCCCC4)cc23)C(=O)N1 (some centres unmarked)", 0.195),
]

[a] CC1(C)CN(Cc2ccn3ncc(N4CCC(=O)NC4=O)c3c2)CCN1CC1CCCCC1
[b] C[C@H]1CN(Cc2ccn3ncc(N4CCC(=O)NC4=O)c3c2)CCN1C1CCOCC1
Could you tell me which of a and b has the lower DC50 reading? Your choice should be expressed through its label. b
(b: 0.041 µM, a: 0.15 µM)

[P] CC[C@H]1CN(Cc2ccn3ncc(N4CCC(=O)NC4=O)c3c2)CCN1CC(C)C
[Q] O=C1CCN(c2cnn3ccc(CC4CCN(CCC5CCCC5)CC4)cc23)C(=O)N1
[R] CC(C)CN1CCC(Cc2ccn3ncc(N4CCC(=O)NC4=O)c3c2)CC1
[S] C[C@@H]1C[C@H](Cc2ccn3ncc(N4CCC(=O)NC4=O)c3c2)CCN1CC1CCOCC1
[T] Cn1cnc(CN2CCC(Cc3ccn4ncc(N5CCC(=O)NC5=O)c4c3)CC2)c1
Which order do these items take when sorted by rising DC50? List them. Write the labels out in the order the request specifies. Q, R, S, P, T
(Q: 0.018 µM, R: 0.039 µM, S: 0.098 µM, P: 0.704 µM, T: 1.7 µM)

[A] CC[C@H]1CN(Cc2ccn3ncc(N4CCC(=O)NC4=O)c3c2)CCN1CC1CCOCC1
[B] C[C@H]1CN(Cc2ccn3ncc(N4CCC(=O)NC4=O)c3c2)CCN1CC(F)F
[C] O=C1CCN(c2cnn3ccc(CN4CCN(CC5CCCCCC5)CC4)cc23)C(=O)N1
[D] O=C1CCN(c2cnn3ccc(CC4CCN(Cc5cccnc5)CC4)cc23)C(=O)N1
Parameters: sort_field (DC50), sort_dir (desc). Write the labels out in the order the request specifies. A, B, D, C
(A: 0.956 µM, B: 0.653 µM, D: 0.048 µM, C: 0.025 µM)

[A] C[C@H]1CN(Cc2ccn3ncc(N4CCC(=O)NC4=O)c3c2)CCN1C(=O)C1CCCCC1
[B] O=C1CCN(c2cnn3ccc(CC4CCN(CC5CCOCC5)CC4)cc23)C(=O)N1
[C] CO[C@H]1CC[C@@H](CN2CCN(Cc3ccn4ncc(N5CCC(=O)NC5=O)c4c3)C[C@@H]2C)CC1
[D] O=C1CCN(c2cnn3ccc(CC4(F)CCN(CC5CCC5)CC4)cc23)C(=O)N1
Which order do these items take when sorted by rising DC50? List them. Write the labels out in the order the request specifies. B, C, D, A
(B: 0.02 µM, C: 0.033 µM, D: 0.596 µM, A: 0.916 µM)

[I] O=C1CCN(c2cnn3ccc(CC4CCN(CC5CCCC5)CC4)cc23)C(=O)N1
[II] O=C1CCN(c2cnn3ccc(CN4C[C@H]5C[C@@H]4CN5CC4CCCCC4)cc23)C(=O)N1
Could you tell me which of I and II has the lower DC50 reading? Your choice should be expressed through its label. I
(I: 0.023 µM, II: 0.942 µM)

[a] C[C@H]1CN(Cc2ccn3ncc(N4CCC(=O)NC4=O)c3c2)CCN1CC1(C)CCC1
[b] C=C(C)CN1CCC(Cc2ccn3ncc(N4CCC(=O)NC4=O)c3c2)CC1 [Example 39a]
Thinking about recorded DC50 values, which is higher, a or b ? Your choice should be expressed through its label. b

[a] CC(C)S(=O)(=O)N1CCN(Cc2ccn3ncc(N4CCC(=O)NC4=O)c3c2)CC1
[b] C[C@H]1C[C@H](Cc2ccn3ncc(N4CCC(=O)NC4=O)c3c2)CCN1C1COC1
[c] CC(C)CN1CCN(Cc2ccn3ncc(N4CCC(=O)NC4=O)c3c2)CC1
Parameters: sort_field (DC50), sort_dir (desc). Write the labels out in the order the request specifies. a, c, b
(a: 0.582 µM, c: 0.076 µM, b: 0.026 µM)

[I] C[C@H]1C[C@H](Cc2ccn3ncc(N4CCC(=O)NC4=O)c3c2)CCN1CC(F)(F)F
[II] CC1(CN2CCC(Cc3ccn4ncc(N5CCC(=O)NC5=O)c4c3)CC2)COC1
Could you tell me which of I and II has the lower DC50 reading? Your choice should be expressed through its label. I
